target: Type-1 angiotensin II receptor B (Rattus norvegicus, UniProt P29089)
Sequence (P29089 whole entry): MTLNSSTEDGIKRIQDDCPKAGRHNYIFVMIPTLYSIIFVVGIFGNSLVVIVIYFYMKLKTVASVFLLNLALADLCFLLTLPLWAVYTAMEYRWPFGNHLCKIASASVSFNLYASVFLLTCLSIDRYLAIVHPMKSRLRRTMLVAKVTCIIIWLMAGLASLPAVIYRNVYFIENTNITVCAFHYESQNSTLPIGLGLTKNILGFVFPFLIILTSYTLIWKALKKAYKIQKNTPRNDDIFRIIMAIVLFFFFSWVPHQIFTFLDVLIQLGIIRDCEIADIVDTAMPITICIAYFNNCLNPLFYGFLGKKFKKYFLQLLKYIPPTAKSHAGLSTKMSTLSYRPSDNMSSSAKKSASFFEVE
Field 'label' (enum: Satisfied / Not satisfied). Set to Satisfied when Ki is strictly under 40 nM; else Not satisfied.

Check out these entries, answers already filled in.
CCCc1nc(COC)n2nc(C)nc2c1Cc1ccc(-c2ccccc2-c2nn[nH]n2)cc1
Not satisfied
CCCc1nc(C)n2c(=O)n(C)nc2c1Cc1ccc(-c2ccccc2-c2nn[nH]n2)cc1
Not satisfied

# next compound below
Lookup: Is Ki strictly under 40 nM for the entry CCCc1nc(C)n2nc(N)nc2c1Cc1ccc(-c2ccccc2-c2nn[nH]n2)cc1 ?
Found: Satisfied

# credit: ChEMBL document CHEMBL1127592
